Origin of values: ChEMBL document CHEMBL4177732

- Tested on: BV-2
- experimental.details: Inhibition of lipopolysaccharide-induced IL-1beta production in mouse BV2 cells pre-incubated for 1 hr before LPS stimulation for 24 hrs by ELISA
- Format: functional, cell-based
Exercise: state measured pIC50 for each of the molecules provided.
Numbers only, as −log10 of the molar value.

molecule	assayed.target	parameter	experimental.result
C[C@@H]1C[C@H](O)C=C2C(=O)C=C[C@@H](O)[C@]21C [NARCHINOL B]	BV-2	pIC50	5.76

Inquiry: Returns the measured pIC50 for the input molecule. Input: C[C@@H]1CCC=C2C(=O)C=C[C@@H](O)[C@]21C
Reply text: 5.69

----------
Assignment: determine reported IC50 for the given molecules.
- System: Microglia
- experimental.details: Inhibition of lipopolysaccharide-induced nitric oxide production in Sprague-Dawley rat primary microglia cells assessed as reduction in nitrite level by Griess reaction based ELISA
- Assay type: functional, cell-based
Give bare numbers, in µM.

molecule	assayed.target	IC50 / µM
C[C@@H]1CCC=C2C(=O)C=C[C@@H](O)[C@]21C	Microglia	4.96

The record that follows has no IC50 shown yet.
Inquiry: Data request, read-out IC50, for C[C@@H]1C[C@H](O)C=C2C(=O)C=C[C@@H](O)[C@]21C
Reply text: 4.17

----------
- Test system: Microglia
- experimental.details: Inhibition of lipopolysaccharide-induced IL6 production in Sprague-Dawley rat primary microglia cells pre-incubated for 1 hr before LPS stimulation for 24 hrs by ELISA
- Format: functional, cell-based
For each of the compounds below, state its pIC50.
Answers are plain numbers, as −log10 of the molar value.

molecule	pIC50
C[C@@H]1CCC=C2C(=O)C=C[C@@H](O)[C@]21C	5.44

Inquiry: Give Microglia pIC50 for C[C@@H]1C[C@H](O)C=C2C(=O)C=C[C@@H](O)[C@]21C
Reply text: 5.40

----------
- System: BV-2
- experimental.details: Inhibition of lipopolysaccharide-induced nitric oxide production in mouse BV2 cells assessed as reduction in nitrite level by Griess reaction based ELISA
- Assay type: functional, cell-based
parameter: pIC50
Answers are plain numbers, as −log10 of the molar value.

Return reported pIC50 values for all items listed beneath this line.
1. C[C@@H]1CCC=C2C(=O)C=C[C@@H](O)[C@]21C
2. C[C@@H]1C[C@@H](O)C=C2C(=O)C=C[C@@H](C(C)(C)O)[C@]21C
3. C[C@@H]1C[C@H](O)C=C2C(=O)C=C[C@@H](O)[C@]21C
4. C=C1COC(=O)[C@H]2[C@@H]1C[C@H](O)[C@@]2(C)O
5. C[C@@H]1C[C@H](O)C=C2C(=O)C=C[C@@H](C(C)(C)O)[C@]21C

Reply text:
5.46
4.33
5.61
4.56
4.52

----------
- System: BV-2
- experimental.details: Inhibition of lipopolysaccharide-induced nitric oxide production in mouse BV2 cells assessed as reduction in nitrite level at 60 uM by Griess reaction based ELISA
- Assay type: functional
parameter: inhibition at 60 µM

compound	inhibition at 60 µM
CC(C)[C@]1(O)CC[C@@]2(C)[C@H](O)CC[C@](C)(O)[C@@H]2C1	28.4%
CC(C)C1CC[C@@](C)(O)[C@@H]2CC[C@](C)(O)[C@H]2[C@@H]1O (some centres undefined)	34%
C=C1[C@@H]2O[C@@H](OC)[C@H]3[C@@H]1C[C@H](O)[C@]3(C)O2	39.7%

Lab note: next compound to report on.
Inquiry: Quick one: inhibition at 60 µM of CC(C)(O)C[C@@H]1CC[C@]2(C)[C@@H](O)CC[C@@](C)(O)[C@@H]12 ?
Reply text: 39%
